Assay System: T1, DDX21Fl monomer (human, UniProt Q9NR30 1-783, L611R;A612R;A613R;A614R;L615R;A616R)
T1 sequence: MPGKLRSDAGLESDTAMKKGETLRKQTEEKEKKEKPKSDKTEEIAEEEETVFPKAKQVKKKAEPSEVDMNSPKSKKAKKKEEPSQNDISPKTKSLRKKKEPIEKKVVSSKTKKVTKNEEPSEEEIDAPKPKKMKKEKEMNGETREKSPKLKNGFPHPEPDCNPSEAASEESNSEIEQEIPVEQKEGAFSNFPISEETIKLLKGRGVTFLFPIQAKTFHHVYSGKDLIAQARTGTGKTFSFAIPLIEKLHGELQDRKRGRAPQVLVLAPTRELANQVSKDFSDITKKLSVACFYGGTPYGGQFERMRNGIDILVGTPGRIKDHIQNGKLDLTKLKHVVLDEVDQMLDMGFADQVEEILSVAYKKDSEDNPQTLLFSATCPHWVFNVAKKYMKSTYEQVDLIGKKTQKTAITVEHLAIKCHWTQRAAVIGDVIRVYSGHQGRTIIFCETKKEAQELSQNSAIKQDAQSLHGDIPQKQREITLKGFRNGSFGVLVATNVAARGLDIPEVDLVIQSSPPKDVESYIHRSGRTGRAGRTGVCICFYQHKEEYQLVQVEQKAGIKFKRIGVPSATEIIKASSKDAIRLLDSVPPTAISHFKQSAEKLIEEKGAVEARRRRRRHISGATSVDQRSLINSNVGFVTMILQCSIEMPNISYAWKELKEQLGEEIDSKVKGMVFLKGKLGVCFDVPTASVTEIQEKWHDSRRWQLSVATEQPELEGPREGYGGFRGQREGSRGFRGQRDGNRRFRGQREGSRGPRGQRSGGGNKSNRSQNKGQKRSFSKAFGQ
Protocol Description: fluorescence polarization; 50 mM KCl; FP: 50 mM Tris pH 7.5, 50 mM KCl, 5 mM MgCl2, no ATP; Hill-slope fit; temperature not given in the material
Conditions Used: protein: recombinant; label: 5'-FAM; G4
Metric: Kd (nM)
Dear colleague, please return just the value in nM, with no unit written.

Prompt line: Find the recorded Kd belonging to GUUGGGGCGGGCGUUGGGUUUGGGGGGACG (structured_RNA) [Q2 RNA G-quadruplex] and report it.
Response line: 9.8
